Tested on: P388 leukemia ip, CD2F1 mice, survival T/C
Test Description: NCI In Vivo Anticancer Drug Screen. Data for tumor model P388 Leukemia (intraperitoneal) in CD2F1 (CDF1) mice
Condition Set: endpoint: median survival time; dose: 25.0 mg/kg/injection; schedule: Q04DX003 (ip); vehicle: saline with Tween-80
Toxic doses and inconclusive results are not listed. The calls were made as follows: active = survival T/C of 150% or more; inactive = T/C below 125% in these data.
Allowed answers: active, inactive

# Molecule, Category Label
data = [
    ("CCCCCCCCN(c1ccc(C(=O)NC(CCC(=O)OCC)C(=O)OCC)cc1)S(=O)(=O)c1ccc(C)cc1 (configuration not stated)", "inactive"),
]

**Query** Fill in: this test's call for CCCCCC(Cn1ccnc1)c1ccccc1Br (configuration not stated) is ___
**Result** inactive

**Query** Fill in: this test's call for COC(=O)C12Oc3ccc(-c4ccc5c(c4O)C(O)=C4C(=O)CC(C)C(O)C4(C(=O)OC)O5)c(O)c3C(O)=C1C(=O)CC(C)C2O (configuration not stated) is ___
**Result** inactive

**Query** Fill in: this test's call for O=C(O)c1c(Cl)cccc1Cl is ___
**Result** inactive

**Query** Fill in: this test's call for CCCCCCCC1(O)OC(=O)C(C)=C1C (configuration not stated) is ___
**Result** inactive

**Query** Fill in: this test's call for COCCCN=C(N)c1ccc(NC(=O)c2ccc(C(=O)Nc3ccc(C(N)=NCCCOC)cc3)cc2)cc1 is ___
**Result** active

**Query** Fill in: this test's call for O=C(CN1CC1)NCCCCCCCCNC(=O)CN1CC1 is ___
**Result** active

* * *

Tested on: P388 leukemia ip, CD2F1 mice, survival T/C
Test Description: NCI In Vivo Anticancer Drug Screen. Data for tumor model P388 Leukemia (intraperitoneal) in CD2F1 (CDF1) mice
Condition Set: endpoint: median survival time; dose: 100.0 mg/kg/injection; schedule: Q01DX009 (ip); vehicle: saline with Tween-80; higher = longer survival
Toxic doses and inconclusive results are not listed.
Metric: T/C

Please go through the list and note T/C for each compound.
1. CCOC(=O)c1c(C)c(-c2ccccc2)c(-c2ccccc2)c(C)c1-c1ccccc1
2. Cc1cc(N)c(C)c(Br)c1C
3. CC(C)OC1CC(C)(C)c2c(-c3ccccc3)nn(-c3ccccc3)c2O1 (stereo unspecified)
4. O=C(O)CSC(=S)Nc1ccccn1

**Result**
["100 % of control", "99 % of control", "98 % of control", "90 % of control"]

Please go through the list and note T/C for each compound.
1. O=C(O)c1ccc(SSc2ccc(C(=O)O)cc2)cc1
2. Cc1nc2c(Cl)cc(Cl)cc2c(=O)n1CC(=O)NNC(N)=S
3. CC12C(=O)C(c3ccccc3)(C(c3ccccc3)=C1c1ccccc1)C1OC(=O)OC12 (stereo unspecified)

**Result**
111 % of control
94 % of control
91 % of control

* * *

System: P388 leukemia ip, CD2F1 mice, survival T/C
Test Description: NCI In Vivo Anticancer Drug Screen. Data for tumor model P388 Leukemia (intraperitoneal) in CD2F1 (CDF1) mice
Condition Set: endpoint: median survival time; dose: 100.0 mg/kg/injection; schedule: Q01DX009 (ip); vehicle: saline with Tween-80
Toxic doses and inconclusive results are not listed. How the source made its calls: active means survival T/C of 150% or more; inactive means T/C below 125% in these data.
Allowed answers: active, inactive

Field: example entries. Status: answers known.
# Molecule, Category Label
rows = [
    ("O=C(N1CCN(c2ccccc2)C1=O)N1CCN(c2ccccc2)C1=O", "inactive"),
    ("O=C(NN(c1ccccc1)c1ccccc1)c1ccccc1[N+](=O)[O-]", "inactive"),
    ("CC(=O)Nc1ccc(S(=O)(=O)/N=C2\\C=CC(=O)c3ccccc32)cc1", "inactive"),
    ("CC1(C)OC2C(COC(=O)c3ccc([N+](=O)[O-])cc3)OC(NC(=O)N(CCCl)N=O)C2O1 (stereo unspecified)", "active"),
]

Attention now shifts to the item below.
**Query** Fill in: this test's call for NNC(=O)C(=O)Nc1ccc(F)cc1 is ___
**Result** inactive

* * *

Answer each item with its documented T/C.
Tested on: P388 leukemia ip, CD2F1 mice, survival T/C
Test Description: NCI In Vivo Anticancer Drug Screen. Data for tumor model P388 Leukemia (intraperitoneal) in CD2F1 (CDF1) mice
Condition Set: endpoint: median survival time; dose: 50.0 mg/kg/injection; schedule: Q01DX001 (ip); vehicle: saline with Tween-80; higher = longer survival
Inconclusive results and toxic doses are left out.

Solved cases (5 shown):
# Molecule, Result
measured = [
    ("Nc1cccc2cccc([N+](=O)[O-])c12", "110 % of control"),
    ("CC1=C(/C=C/C(C)=C/C=C/C(C)=C/C=C2/CCOC2=O)C(C)(C)CCC1", "96 % of control"),
    ("N#CC(C#N)=C1Cc2ccccc2C1", "100 % of control"),
    ("CC(C)(C)c1cc2c3c(c1)C(C)(C)OS314(OC2=O)OC(=O)c2cc(C(C)(C)C)cc(c21)C(C)(C)O4", "92 % of control"),
    ("O=C(Cc1ccccc1)NC1C(=O)N2c3c(CO)cccc3OCC12 (stereo unspecified)", "100 % of control"),
]

Proceed to the following item.
**Query** // fetch T/C given entry CC1=CC(=O)C=C/C1=N/S(=O)(=O)c1ccccc1
**Result** 100 % of control

* * *

Tested on: P388 leukemia ip, CD2F1 mice, survival T/C
Test Description: NCI In Vivo Anticancer Drug Screen. Data for tumor model P388 Leukemia (intraperitoneal) in CD2F1 (CDF1) mice
Condition Set: endpoint: median survival time; dose: 25.0 mg/kg/injection; schedule: Q01DX005 (ip); vehicle: Klucel (hydroxypropylcellulose) (HPC); higher = longer survival
Inconclusive results and toxic doses are left out. Peptide text beside a SMILES is read from it. * marks the point of attachment. Cbz = O=C(OCc1ccccc1)*; Bn = c1ccc(C*)cc1
Metric: T/C

# Molecule, Metric, Result
rows = [
    ("Nc1ccc(S(=O)(=O)n2c(=O)oc3cc(Cl)ccc32)cc1", "T/C", "93 % of control"),
]

Please go through the list and note T/C for each molecule.
1. C/C=C(\C)C(=O)N/N=C\C=C\c1ccccc1
2. COc1cc(OC)c(/C=N/Nc2cc(C)nc3cc4c(cc23)OCO4)c(OC)c1
3. O=C1C2CCCC1C(c1ccccc1)NC2c1ccccc1 (stereo not drawn)
4. CCCNc1cc(C)cc2[nH]c(C)nc12
5. O=c1c(N(CCO)CCO)cn(Cc2ccccc2)c(=O)n1Cc1ccccc1
6. CCC1=CCC2C(=O)C3CC(CC)=CCC3C(=O)C2C1 (stereo not drawn)
7. C(=C\c1cc2ccc(C3=NCCN3)cc2[nH]1)/c1ccc2cc(C3=NCCN3)[nH]c2c1

**Result**
89 % of control
103 % of control
104 % of control
103 % of control
100 % of control
92 % of control
110 % of control

Please go through the list and note T/C for each molecule.
1. COc1nc(N)c([N+](=O)[O-])c(C(Br)Br)n1
2. CN1CCCc2cccc(c2)CCC1
3. O=C(Nc1ccc(NC2=NCCN2)cc1)c1cc(Cl)cc(C(=O)Nc2ccc(NC3=NCCN3)cc2)c1
4. CN(C)CCNc1cccc2oc3ccc(O)cc3c(=O)c12
5. C=CCC1OC(COC(=O)c2ccccc2)C(OC(=O)c2ccccc2)C1OC(=O)c1ccccc1 (stereo not drawn)
6. Cc1ccc(/C=N\NC(=O)NN)cc1
7. O=C1c2c(Cl)c(Cl)c(Cl)c(Cl)c2C(=O)C2(Cl)CC=CCC12Cl (stereo not drawn)
8. CC1CC2([Si](C)(C)C)C(=O)NC(=O)NC12 (stereo not drawn)

**Result**
1: 91 % of control; 2: 100 % of control; 3: 102 % of control; 4: 101 % of control; 5: 112 % of control; 6: 97 % of control; 7: 101 % of control; 8: 112 % of control

Please go through the list and note T/C for each molecule.
1. COc1cc[c]([Sn]([O][Sn]([Cl])([c]2ccc(OC)cc2)[c]2ccc(OC)cc2)[c]2ccc(OC)cc2)cc1
2. NC(=O)C(Cc1ccccc1)NC(=O)C(CSCc1ccccc1)NC(=O)OCc1ccccc1 (stereo not drawn) (Cbz-Cys(Bn)-Phe-NH2; configuration not given here)

**Result**
["120 % of control", "102 % of control"]

* * *

Answer each item with its documented T/C.
Tested on: P388 leukemia ip, CD2F1 mice, survival T/C
Test Description: NCI In Vivo Anticancer Drug Screen. Data for tumor model P388 Leukemia (intraperitoneal) in CD2F1 (CDF1) mice
Condition Set: endpoint: median survival time; dose: 200.0 mg/kg/injection; schedule: Q01DX005 (ip); vehicle: Klucel (hydroxypropylcellulose) (HPC); higher = longer survival
Inconclusive results and toxic doses are left out.

Solved cases (2 shown):
# Compound, Target Or System, Result
rows = [
    ("COc1cc(Br)c(C(C)(C)C#N)cc1OC", "P388 leukemia ip, CD2F1 mice, survival T/C", "100 % of control"),
    ("COC(=O)c1cc(=O)nc(NNC(C)=O)s1", "P388 leukemia ip, CD2F1 mice, survival T/C", "106 % of control"),
]

Please go through the list and note T/C for each compound.
1. Oc1ccccc1-c1cc(-c2ccccc2)nc(NCCCNc2nc(-c3ccccc3)cc(-c3ccccc3O)n2)n1
2. C=CCN(CCNc1cccc2ccccc12)C1CCCCC1
3. COc1cc(NC(=O)CNC(=O)CNC(=O)C(N)CC(C)C)cc2ccccc12 (configuration not stated)
4. CC1(C)CC(N2CCOCC2)=CC(=S)N1
5. COc1cc2c(cc1OC)C(=O)OC(=O)C2
6. O=CNc1cccnc1C1OCCO1
7. COc1cc2c(c3c1c(=S)c1ccccc1n3C)C=CC(C)(C)O2

**Result**
["86 % of control", "104 % of control", "100 % of control", "98 % of control", "95 % of control", "102 % of control", "108 % of control"]

Please go through the list and note T/C for each compound.
1. Cc1nc2ncn(-c3ccccc3)c2c(=O)n1Cc1ccccc1
2. Clc1ccc2c(c1)nc(-c1ccccn1)n2CCc1ccncc1
3. CC(Cc1nc2ccccc2[nH]1)Cc1nc2ccccc2[nH]1
4. CCOC(=O)C1=C(O)C(C)(c2ccc(O)cc2O)N=C1c1ccccc1 (configuration not stated)
5. Cc1c(Cc2ccccc2)[n+](=O)c2ccccc2n1[O-]

**Result**
105 % of control
99 % of control
91 % of control
89 % of control
99 % of control

Please go through the list and note T/C for each compound.
1. Cc1ccc(SSc2ccc(C(C)(C)C)cc2)cc1
2. COC(=O)N(C)C1=CCC(C(C)(C)C)CC1 (configuration not stated)

**Result**
1: 99 % of control; 2: 105 % of control

Please go through the list and note T/C for each compound.
1. C[Si](C)(C)CC[Si]12OCCN(CCO1)CCO2
2. Cc1ccc(C2=C3CCCCC3c3cc(C)ccc32)cc1 (configuration not stated)
3. O=C1NC(O)c2cc(O)ccc2O1 (configuration not stated)
4. COc1ccc(CCNC(=O)CC2CCN(Cc3ccccc3)CC2)cc1OC
5. CC1(C)OC2OC3C(CNCCO)OC(c4ccccc4)OC3C2O1 (configuration not stated)
6. O=C1C=C2CCCCCCCC(C1)C2 (configuration not stated)
7. C=C=CC(C)(O)c1ccc(-c2ccccc2)cc1 (configuration not stated)
8. O=C(O)/C(=C/c1ccc([N+](=O)[O-])cc1)c1ccccc1

**Result**
1. 92 % of control
2. 90 % of control
3. 111 % of control
4. 95 % of control
5. 101 % of control
6. 110 % of control
7. 104 % of control
8. 102 % of control
